Biological target: CPP32 (Homo sapiens, UniProt P42574)
Sequence (P42574 29-175 limits assumed): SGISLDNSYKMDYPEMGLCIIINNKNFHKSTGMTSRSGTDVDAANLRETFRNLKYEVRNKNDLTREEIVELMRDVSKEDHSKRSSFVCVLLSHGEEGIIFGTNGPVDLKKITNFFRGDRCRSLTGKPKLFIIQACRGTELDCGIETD
Sequence (P42574 176-277 limits assumed): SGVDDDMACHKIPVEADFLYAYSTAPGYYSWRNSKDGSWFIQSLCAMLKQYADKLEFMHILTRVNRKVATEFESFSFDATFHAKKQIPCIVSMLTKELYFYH
Experiment: Dissociation constant Ki and irreversible rate constant k3 for irreversible inhibitors, CPP32
Conditions: continuous assay 60 min, reaction initiated by adding enzyme
reported_property: Ki (µM)

(a) CC(C)[C@H](NC(=O)COc1cccc2ccccc12)C(=O)N[C@@H](CC(=O)O)C(=O)COP(C)(=O)c1cccc2ccccc12 (stereo partly shown)
(b) CC(C)C[C@H](NC(=O)COc1ccccc1-c1ccccc1)C(=O)N[C@@H](CC(=O)O)C(=O)COP(=O)(c1ccccc1)c1ccccc1
(c) CC(C)C[C@H](NC(=O)COc1c(C(=O)O)ccc2ccccc12)C(=O)N[C@@H](CC(=O)O)C(=O)COc1c(F)c(F)cc(F)c1F
Descending by Ki please, for everything listed above. Answer by writing out the labels in the requested order.
c, a, b
(c: 0.089 µM, a: 0.035 µM, b: 0.019 µM)

(I) CC(C)[C@H](NC(=O)COc1cccc2ccccc12)C(=O)N[C@@H](CC(=O)O)C(=O)COc1c(F)cc(F)cc1F
(II) CC(C)[C@H](NC(=O)COc1ccccc1-c1ccccc1)C(=O)N[C@@H](CC(=O)O)C(=O)COC(=O)c1c(Cl)cccc1Cl
Which entry has a larger number for Ki, I or II ? Returns: label corresponding to the selected item.
I

(1) CC(C)C[C@H](NC(=O)COc1ccccc1-c1ccccc1)C(=O)N[C@@H](CC(=O)O)C(=O)COc1c(F)c(F)cc(F)c1F
(2) C[C@H](NC(=O)COc1ccc2ccccc2c1)C(=O)NC(CC(=O)O)C(=O)COc1c(F)c(F)cc(F)c1F (stereo partly shown)
Select the item with the higher value of Ki from the options 1 and 2 listed. Refer to your chosen entry by its label in the reply.
2
(2: 3.08 µM, 1: 0.063 µM)

(P) CC(C)[C@H](NC(=O)COc1cccc2ccccc12)C(=O)N[C@@H](CC(=O)O)C(=O)COP(C)(=O)c1ccc(F)cc1 (stereo partly shown)
(Q) CC(C)[C@H](NC(=O)COc1cccc2ccccc12)C(=O)N[C@@H](CC(=O)O)C(=O)COc1c(F)ccc(F)c1F
Pick one, P or Q : lowest reported Ki. Answer by quoting the chosen item's label.
P

---

Molecular target: CPP32 (Homo sapiens)
Sequence (P42574 29-175 limits assumed): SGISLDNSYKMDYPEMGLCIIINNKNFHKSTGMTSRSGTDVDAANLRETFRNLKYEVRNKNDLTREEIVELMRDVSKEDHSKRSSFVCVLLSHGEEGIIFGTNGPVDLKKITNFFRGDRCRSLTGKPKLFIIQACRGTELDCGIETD
Sequence (P42574 176-277 limits assumed): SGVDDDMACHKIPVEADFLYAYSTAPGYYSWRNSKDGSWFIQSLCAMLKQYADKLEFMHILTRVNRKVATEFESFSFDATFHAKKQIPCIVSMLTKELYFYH
Test: Fluorescence enzyme assay, IC50 determination, CPP32
Type: biochemical
Settings: Table 3; method of Preparation 3A; read-out: CPP32 I50
pIC50: −log10 of the molar value.
reported_property: pIC50

Some molecules with recorded pIC50:
molecule: CC(C)C[C@H](NC(=O)COc1cccc2ccccc12)C(=O)N[C@H](C=O)CC(=O)O
pIC50: 6.86

molecule: CC(C)C[C@H](NC(=O)COc1ccc(Oc2ccccc2)cc1)C(=O)N[C@H](C=O)CC(=O)O
pIC50: 6.26

molecule: CC(C)C[C@H](NC(=O)COc1ccccc1-c1ccccc1)C(=O)N[C@H](C=O)CC(=O)O
pIC50: 7.02

molecule: CC(C)C[C@H](NC(=O)C(C)CC(=O)c1cccc2ccccc12)C(=O)N[C@H](C=O)CC(=O)O (stereo partly shown)
pIC50: 5.01

molecule: CC(C)C[C@H](NC(=O)CSc1cccc2ccccc12)C(=O)N[C@H](C=O)CC(=O)O
pIC50: 6.71

(I) CC(C)C[C@H](NC(=O)COc1cccc2cnccc12)C(=O)N[C@H](C=O)CC(=O)O
(II) CC(C)C[C@H](NC(=O)COc1nccc2ccccc12)C(=O)N[C@H](C=O)CC(=O)O
Which numeric pIC50 is bigger, that of I or that of II ? State the label of the item chosen.
I
(I: 6.39, II: 5.80)

(I) COc1ccc(OCC(=O)N[C@@H](CC(C)C)C(=O)N[C@H](C=O)CC(=O)O)c2ccccc12
(II) CC(C)C[C@H](NC(=O)C(C)Oc1cccc2cc(Br)ccc12)C(=O)N[C@H](C=O)CC(=O)O (stereo partly shown)
Would you kindly point out which of I and II has the smaller pIC50 figure? Reply briefly: the label of your chosen item.
II

(a) Cc1ccc2ccccc2c1OCC(=O)N[C@@H](CC(C)C)C(=O)N[C@H](C=O)CC(=O)O
(b) CC(C)C[C@H](NC(=O)CCC(=O)c1cccc2ccccc12)C(=O)N[C@H](C=O)CC(=O)O
(c) CC(C)C[C@H](NC(=O)CCOc1cccc2ccccc12)C(=O)N[C@H](C=O)CC(=O)O
(d) CC(C)C[C@H](NC(=O)CCCc1ccc2ccccc2c1)C(=O)N[C@H](C=O)CC(=O)O
Falling order of pIC50, please. Put the labels in the requested order and list them out.
c, a, b, d

---

Biological target: MCH-2 (Homo sapiens)
Sequence (P55212 24-179 limits assumed): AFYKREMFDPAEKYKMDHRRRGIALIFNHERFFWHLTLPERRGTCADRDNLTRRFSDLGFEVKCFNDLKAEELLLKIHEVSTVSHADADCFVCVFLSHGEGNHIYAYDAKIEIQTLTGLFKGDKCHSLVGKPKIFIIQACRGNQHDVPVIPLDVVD
Sequence (P55212 194-293 limits assumed): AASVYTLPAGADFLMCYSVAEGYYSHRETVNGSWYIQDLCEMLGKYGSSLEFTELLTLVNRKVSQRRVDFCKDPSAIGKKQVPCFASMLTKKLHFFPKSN
Experiment: Fluorescence enzyme assay, IC50 determination, Mch2
Format: biochemical
Conditions: Table 3; method of Preparation 3A; read-out: MCH2 I50
pIC50: −log10 of the molar value.
reported_property: pIC50

molecule: CC(C)C[C@H](NC(=O)C(C)Oc1cccc2ccccc12)C(=O)N[C@H](C=O)CC(=O)O (stereo partly drawn)
pIC50: 5.89
--
molecule: CC(C)C[C@H](NC(=O)CCOc1cccc2ccccc12)C(=O)N[C@H](C=O)CC(=O)O
pIC50: 6.52
--
molecule: CC(C)C[C@H](NC(=O)CCOc1ccc2ccccc2c1)C(=O)N[C@H](C=O)CC(=O)O
pIC50: 5.23
--
molecule: CC(C)C[C@H](NC(=O)C(C)CC(=O)c1cccc2ccccc12)C(=O)N[C@H](C=O)CC(=O)O (stereo partly drawn)
pIC50: 4.60
--
molecule: CC(C)C[C@H](NC(=O)C(C)Oc1cccc2cc(Br)ccc12)C(=O)N[C@H](C=O)CC(=O)O (stereo partly drawn)
pIC50: 4.86
--
molecule: CC(C)C[C@H](NC(=O)COc1ccccc1-c1ccccc1)C(=O)N[C@H](C=O)CC(=O)O
pIC50: 6.14

(I) CC(C)C[C@H](NC(=O)COc1ccc(-c2ccccc2)cc1)C(=O)N[C@H](C=O)CC(=O)O
(II) CC(C)C[C@H](NC(=O)COc1ccc(Cl)c2ccccc12)C(=O)N[C@H](C=O)CC(=O)O
Of I and II , whose reported pIC50 is numerically smaller? Pick one; state its label.
I

---

Biological target: MCH-2 (Homo sapiens)
Sequence (P55212 24-179 limits assumed): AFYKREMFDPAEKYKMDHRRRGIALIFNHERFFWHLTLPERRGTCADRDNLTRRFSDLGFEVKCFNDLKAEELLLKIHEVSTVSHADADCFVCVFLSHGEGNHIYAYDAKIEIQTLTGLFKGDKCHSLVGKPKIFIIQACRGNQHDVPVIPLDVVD
Sequence (P55212 194-293 limits assumed): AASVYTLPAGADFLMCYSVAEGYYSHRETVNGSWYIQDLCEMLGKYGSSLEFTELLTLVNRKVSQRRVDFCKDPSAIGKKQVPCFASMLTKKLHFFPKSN
Test: Fluorescence enzyme assay, IC50 determination, Mch2
Type: biochemical
Details: Ac-DEVD-AMC substrate, 30 min preincubation, room temperature; read-out: MCH-2 IC50
reported_property: IC50 (nM)

(I) CC(C)[C@H](NC(=O)COc1cccc2c(NS(=O)(=O)C(F)(F)F)cccc12)C(=O)N[C@H](C=O)CC(=O)O
(II) CC(C)[C@H](NC(=O)COc1cc2ccccc2cc1C(=O)O)C(=O)N[C@H](C=O)CC(=O)O
(III) CC(C)C[C@H](NC(=O)C(C)Nc1cccc2ccccc12)C(=O)N[C@H](C=O)CC(=O)O (mixture of isomers)
Ordering criterion: IC50; begin with the maximum. Note for the reader: the ranking is given by listing the labels in the order requested.
II, I, III
